B1: TMEM106C (parent)
chain: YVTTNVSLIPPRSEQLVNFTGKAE

Variants of: B1
Assay: protein stability index of a GFP-peptide fusion (GPS, HEK-293T) (PSI 1-6); higher = more stable;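 further: lentivirally expressed fusions sorted by FACS into six bins by GFP to DsRed ratio, PSI derived from sequencing read proportions per bin multiplied by bin number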
Details: c terminus: a fixed tail appended
Could you label it Satisfied if measured protein stability index is 2 or higher, and Not satisfied otherwise?

Does protein stability index meet or surpass 2 for `N5G` ?
Not satisfied

hey, is protein stability index for this one >= 2? `T4P`
Satisfied

# check: protein stability index of `S13W` is greater than or equal to 2
Not satisfied

Could you tell me if the measured protein stability index of `S7E` reaches 2 or more?
Satisfied

Hi, just wondering whether `T3R` shows protein stability index of 2 or higher.
Satisfied

In plain terms: is recorded protein stability index at least 2 for `N5W` ?
Satisfied

Quick check: does `V2K` have protein stability index greater than or equal to 2?
Satisfied

Does the variant `A23G` have recorded protein stability index that is 2 or more?
Not satisfied

Given the entry `I9D` , answer whether its protein stability index meets or surpasses 2.
Satisfied

Assess whether reported protein stability index for `A23R` sits at 2 or higher.
Satisfied

Does `E14A` have a reported protein stability index of at least 2?
Satisfied

Does `S7A` have a reported protein stability index of at least 2?
Not satisfied

Decide: protein stability index of `S7M` >= 2?
Not satisfied

Does `V17N` have a reported protein stability index of at least 2?
Not satisfied

Form field: protein stability index at least 2? Entry: `T20W`
Satisfied

Form field: protein stability index at least 2? Entry: `E24P`
Satisfied

Determine whether this variant has protein stability index no lower than 2: `P10E`
Not satisfied

Could you verify whether the entry `A23I` shows protein stability index of no less than 2?
Satisfied

Could you tell me if the measured protein stability index of `V17Y` reaches 2 or more?
Satisfied

Quick check, protein stability index >= 2? `L8D`
Satisfied

hey, is protein stability index for this one >= 2? `N18R`
Satisfied
